Listed here: items and their measured kon.
target_entity: T1, human PILRA, c-term His-Avi tag (human, UniProt Q9UKJ1 20-197, limits assumed)
T1 construct: not shown: C-terminal His-Avi tag
method_notes: SPR (Biacore), antibody captured, PILRA as analyte
Protocol: Experiments were performed to determine the kinetics of anti-PILRA antibody binding to human […]. The assay is depicted in FIG. 6. A rabbit anti-PILRA was used as a positive control, and H1 LALAPS was used as a negative control. Human PILRA (human PILRA, c-term His-Avi tag, 0.68 mg/mi) was used as the antigen. The running buffer was HBSTE/0.5% BSA, pH 7.4, and the regeneration solution was 10 mM glycine-HCl (pH 2.1). […]

- binder: "hPA-004 (antibody, V domains shown) VH: QVTLKESGPGMLQPSQTLSLACSFSGFSLNSFGVAVGWIRQPSGKGLEWLAHIWWDDDKSYNPALKSRLTISKDTSKNQVFLKLANVDTADTATYYCTRIADYGNHFDYWGQGTALTVSS VL: DIQMNQSPSSLSASLGDTITITCHASQNSHVWLSWYQQKPGNIPKLLIYKASNLHTGVPSRFSGSGSGTGFTLTISGLQPEDIATYYCQQGQTYPFTFGSGTKLEIK"
  kon (M⁻¹ s⁻¹): 130000
- binder: "D2 (antibody, V domains shown, second hybridoma campaign) VH: QIQLGQSGPELKRPRETVKISCKASGYTFTTYGMSWVKQAPGKGLRWMGWINTHSGVPAYADDFKGRFAFSLETSANTAFLQINNLENEDTATYFCAKDYNWGMDYWGQGTSVIVSS VL: QLVLTQSSSASFSLGASAKLTCTLSSQHSTYTIEWYQQQPLKPPKYVMEVKKDGSHSTGDGIPDRFSGSSSGADRYLSISNIQPEDEAIYICGVGDSIKEQFVYVFGGGTKVTVL"
  kon (M⁻¹ s⁻¹): 75000
- binder: "E21 (antibody, V domains shown, phage campaign) VH: QVQLVQSGAEVKKPGSSVKVSCKASGYTFSNYDINWVRQAPGQGLEWMGGIIPIFGTANYALKFQGRVTITADESTSTAYMELSSLRSEDTAVYYCARGGPWLYFDYWGQGTLVTVSS VL: DIQMTQSPSSLSASVGDRVTITCRASQSISTYLNWYQQKPGKAPKLLIYAASTLQSGVPSRFSGSGSGTDFTLTISSLQPEDFATYYCQQSYSSPLTFGQGTKLEIK"
  kon (M⁻¹ s⁻¹): 120000
- binder: "A1 (antibody, V domains shown, phage campaign) VH: QVQLVQSGAEVKKPGSSVKVSCKASGYTFINHDINWVRQAPGQGLEWMGWMNPNSGNTGYAQKFQGRVTITADESTSTAYMELSSLRSEDTAVYYCARDRRGSYYGLMDWFDPWGQGTLVTVSS VL: DIQMTQSPSSLSASVGDRVTITCRASQSISRWLAWYQQKPGKAPKLLIYDASNLETGVPSRFSGSGSGTDFTLTISSLQPEDFATYYCQQSYSTPSFGQGTKVEIK"
  kon (M⁻¹ s⁻¹): 38000
- binder: "hPA-002 (antibody, V domains shown) VH: QVTLQESGPGILQPSQTLSLTCSFSGFSLSTFGMGVGWIRQPSGKGLEWLAHIWWDDDKYYNPALKSRLTISKDTSKNQVFLKIASVDTADIATYYCARVEDYGNPFDYWGQGTTL VL: DIQMNQSPSSLSASLGDTITITCHASQNIHVWLNWYQQKPGNIPKLLIYKASNLHTGVPSRFSGSGSGTGFTVTISSLQPEDIATYYCQQGQSYPLTFGAGTKLELK"
  kon (M⁻¹ s⁻¹): 220000
